- measured_target: Human immunodeficiency virus type 1 protease (Human immunodeficiency virus 1, UniProt Q72874, G48V/I54V/L10I/L63P/V82A)
- Sequence (Q72874 entry or part of it G48V/I54V/L10I/L63P/V82A): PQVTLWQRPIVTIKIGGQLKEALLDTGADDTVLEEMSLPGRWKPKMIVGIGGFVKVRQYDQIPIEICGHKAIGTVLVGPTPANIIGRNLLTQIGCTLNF
- assay_overview: Inhibition of HIV1 protease L10I/G48V/I54V/L63P/V82A mutant
pKi: −log10 of the molar value.
readout_label: pKi

INSERT INTO results (structure_as_smiles, recorded_measurement) VALUES
  ('COc1ccc(S(=O)(=O)N(CC(C)C)C[C@@H](O)[C@H](Cc2ccccc2)NC(=O)[C@@H]2CN(c3ccc(C(C)=O)cc3)C(=O)O2)cc1', 9.11),
  ('CC(C)CN(C[C@@H](O)[C@H](Cc1ccccc1)NC(=O)[C@@H]1CN(c2ccccc2)C(=O)O1)S(=O)(=O)c1ccc(N)cc1', 8.68),
  ('COc1ccc(S(=O)(=O)N(CC(C)C)C[C@@H](O)[C@H](Cc2ccccc2)NC(=O)[C@@H]2CN(c3ccc(F)c(F)c3)C(=O)O2)cc1', 8.93),
  ('COc1ccc(S(=O)(=O)N(CC(C)C)C[C@@H](O)[C@H](Cc2ccccc2)NC(=O)[C@@H]2CN(c3cccc(F)c3)C(=O)O2)cc1', 8.45);
